Counter-ions that a name gives are not always drawn.
Listed compounds paired with reported melting point

Please review the entries below; each comes with its answer.
CC(C)(C)OC(=O)NC1CCCC(NC(=O)c2ccc(-c3[nH]nc4c3C(=O)c3c(NC(=O)NN5CCOCC5)cccc3-4)s2)C1 (stereo not shown) (as salt: TFA); > 300 °C
O=C(Nc1cccc2c1C(=O)c1c-2n[nH]c1-c1ccc(C(=O)NC2CCCNC2)s1)NN1CCOCC1 (stereo not shown) (as salt: TFA); > 300 °C
Cc1cc(-c2[nH]nc3c2C(=O)c2c(NC(N)=O)cccc2-3)c(C)s1; > 280 °C

Could you now look at the following compound, please?
Ask: Query: melting point; subject: CC(=O)N(C)[C@H]1CCN(C(=O)c2ccc(-c3[nH]nc4c3C(=O)c3c(NC(=O)NN5CCOCC5)cccc3-4)s2)C1 (as salt: TFA)
Result: > 300 °C

# credit: patent US6407103B2
